measured.metric: melting point (°C)

CC(=O)c1cccc(-c2ccc(CC(=O)Nc3n[nH]c4c3CCC4)cc2)c1 150
COc1ccccc1-c1ccc(CC(=O)Nc2n[nH]c3c2CCC3)cc1 150

###

// melting point lookup, one value per entry

Check out these entries, answers already filled in.
O=C(Cc1ccc(-c2cccc(F)c2)cc1)Nc1n[nH]c2c1CCC2 180 to 181 °C
COc1cccc(-c2ccc(CC(=O)Nc3n[nH]c4c3CCC4)cc2)c1 110 to 114 °C

Challenge: Fill blank: measured melting point of the compound `COc1ccc(-c2ccc(CC(=O)Nc3n[nH]c4c3CCC4)cc2)cc1` is ____.
Response given: 168 to 172 °C

###

measured.metric: melting point

Challenge: Requested field: melting point. Item: O=C(Cc1ccc(-c2ccc(F)cc2)cc1)Nc1n[nH]c2c1CCC2 [Example 1.2]
Response given: 161 to 163 °C

Challenge: Repeat for the following compound: CC(=O)c1ccc(-c2ccc(CC(=O)Nc3n[nH]c4c3CCC4)cc2)cc1 [Example 1.8]
Response given: 112 to 114 °C

Challenge: Another compound to look at: O=C(Cc1ccc(-c2ccccc2F)cc1)Nc1n[nH]c2c1CCC2 [Example 1.3]
Response given: 179 to 181 °C

Where do these numbers come from? They come from patent US20030212121A1.
